Tested on: HL-60(TB) leukemia
Assay: NCI tumour cell line growth inhibition, 48 h; in the data active = GI50 below about 0.43 µM; inactive = the rest
Entry note: the call must match one of true (1) (active), false (0) (inactive)

line notation: CN(C)C(=S)N=Nc1c(O)[nH]c2ccccc12
category label: false (0)

input: Please share the test call associated with `ClCc1c(Cl)c(Cl)c(Cl)c(CCl)c1Cl` .
output: false (0)

input: Please share the test call associated with `CCN(Cc1ccccc1OC)c1ccc(CO)c(Cl)c1` .
output: false (0)

###

Items are presented alongside their recorded TGI.
System: HT29 colon
Assay: NCI tumour cell line growth inhibition, 48 h
Give your result in µM as a bare value.

compound: CC1OC2CC(=O)OC2C2=C1C(=O)c1c(O)c3c(c(O)c1C2=O)C1CC(O)C3(O)C(C)O1 (centres undefined)
tgt: HT29 colon
TGI (µM): 1.14

Here is the next item to consider.
input: Fill in the blank: the reported TGI of `C[C@@H]1CN(CC(=O)N2CC(C)(C)c3nc(CO)c(Cc4ccc(F)cc4)cc32)[C@@H](CN2CCOC[C@H]2C)CN1` is ____.
output: 49.2

###

Test system: A549 NSCLC
Assay: NCI tumour cell line growth inhibition, 48 h
Items are presented alongside their recorded TGI.
Give your result in µM as a bare value.

Sample answers from the record:
compound: ClCc1c(Cl)c(Cl)c(Cl)c(CCl)c1Cl
tgt: A549 NSCLC
assay readout: TGI
result number: 16.3

compound: COc1cc([C@@H]2c3cc4c(cc3[C@@H](NC(=O)c3ccccc3)C3COC(=O)[C@@H]32)OCO4)cc(OC)c1O (stereo partly specified)
tgt: A549 NSCLC
assay readout: TGI
result number: 16.6

compound: COCc1cc2c(cc1/C=C/[N+](=O)[O-])OCO2
tgt: A549 NSCLC
assay readout: TGI
result number: 32.2

compound: COc1ccc(-c2cc(-c3cc(OC)c(OC)c(OC)c3)cc(-c3cc4ccccc4oc3=O)n2)cc1
tgt: A549 NSCLC
assay readout: TGI
result number: 60

compound: COC(=O)/N=[N+](\[O-])C(c1ccc(OC)cc1)C1CCCCC1 (stereo unspecified)
tgt: A549 NSCLC
assay readout: TGI
result number: 34.9

Here is the next item to consider.
input: Fill in the blank: the reported TGI of `Cc1ccc(N=C2C(=O)C3=C(OC(C)(C)CC3)c3ccccc32)cc1` is ____.
output: 3.69

###

System: EKVX NSCLC
Assay: NCI tumour cell line growth inhibition, 48 h
assay readout: TGI

Sample answers from the record:
molecule: CCCCCCCCCCCCCCCC(=O)OCC1OC(n2c(O)c(N=NC(N)=S)c3ccc([N+](=O)[O-])cc32)C(OC(C)=O)C1OC(C)=O (stereo not given)
result: > 100 µM
--
molecule: COc1ccc(O)c(C#N)c1C#N
result: > 100 µM
--
molecule: CC(=O)c1cc([N+](=O)[O-])ccc1OCC(=O)O
result: > 100 µM
--
molecule: CN(C)Cc1cc(N=Nc2ccccc2)cc(CN(C)C)c1O
result: > 100 µM

input: Fill in the blank: the reported TGI of `CCOc1ccc(NCc2cc(OC)c(OC)c(OC)c2)cc1` is ____.
output: > 100 µM

input: Fill in the blank: the reported TGI of COc1ccc(NC(=O)/C(CC2=Nc3ccc([N+](=O)[O-])cc3NC2O)=N\NC(=O)C[N+](C)(C)C)c(OC)c1 (stereo not given) is ____.
output: > 100 µM

input: Fill in the blank: the reported TGI of CCC12CCCC(=O)N1C(CO)C(c1ccccc1)O2 (stereo not given) is ____.
output: > 100 µM

input: Fill in the blank: the reported TGI of `ClCc1c(Cl)c(Cl)c(Cl)c(CCl)c1Cl` is ____.
output: 4.15 µM

input: Fill in the blank: the reported TGI of `S=C1N=C(Cl)C2(NN1)c1ccccc1-c1ccccc12` is ____.
output: > 10 µM

input: Fill in the blank: the reported TGI of `CC(C)=CCC/C(C)=C/CC/C(C)=C/CC/C(C)=C/CC/C(C)=C\CC/C(C)=C/CC/C(C)=C/CC/C(C)=C/Cc1cc(O)ccc1O` is ____.
output: 8.83 µM

###

System: SF-268 CNS
Assay: NCI tumour cell line growth inhibition, 48 h
assay readout: TGI

compound: Cc1cc2c3ccccc3n(C)c2c2c1C(=O)C=CC2=O
TGI: 39.1 µM

compound: COc1ccc(O)c(C#N)c1C#N
TGI: > 100 µM

compound: Clc1nc(Cl)c2ncn(Cc3ccc(COc4cccc(OCc5ccc(Cn6cnc7c(Cl)nc(Cl)nc76)cc5)c4)cc3)c2n1
TGI: > 100 µM

compound: C[C@@H]1COCCN1c1cc(C2(S(C)(=N)=O)CC2)nc(-c2ccnc3[nH]ccc23)n1 (stereo partly specified)
TGI: 39.6 µM

compound: COc1ccc2nc3cc(Cl)ccc3c(NCCCN(CCCl)CCCl)c2c1
TGI: 0.3 µM

Here is the next item to consider.
input: Fill in the blank: the reported TGI of NNC(=O)CCC(=O)NC1C2CC3CC(C2)CC1C3 (stereo unspecified) is ____.
output: > 100 µM

###

Tested on: SNB-75 CNS
Test: NCI tumour cell line growth inhibition, 48 h; in the data active = GI50 below about 0.43 µM; inactive = the rest
Entry note: the call must match one of True = active, False = inactive

input: Please share the test call associated with COc1ccc2c(c1)OC(N(C(C)=O)C(C)=O)=C(C#N)C2c1ccc(F)cc1 (stereo not given) .
output: False

input: Please share the test call associated with `O=C(CCl)N1c2ccccc2Sc2c1ccc1ccccc21` .
output: False

input: Please share the test call associated with `Nc1cc(N)c(N)cc1N` .
output: False

input: Please share the test call associated with `CC(=O)Nc1ccc2c(c1)oc(=O)c1cc(NC(C)=O)ccc12` .
output: False

input: Please share the test call associated with `Clc1nc(Cl)c2ncn(Cc3ccc(COc4cccc(OCc5ccc(Cn6cnc7c(Cl)nc(Cl)nc76)cc5)c4)cc3)c2n1` .
output: False

input: Please share the test call associated with `CC[C@H](CC#N)OC(=O)N[C@@H](C)c1cccc(NC(=O)Nc2ccc(-c3cnco3)c(OC)c2)c1` .
output: True

input: Please share the test call associated with `COc1cc(Nc2nc(N[C@H]3CCCC[C@@H]3N)nc3cc[nH]c(=O)c23)cc(OC)c1` .
output: False

input: Please share the test call associated with `COc1cc[nH]c1/C=C1\C(=O)Nc2ccc(F)c(I)c21` .
output: False

input: Please share the test call associated with `CO/N=C(\C)c1ccc(Nc2cc(-c3ccccc3)nc3c(O)cccc23)cc1` .
output: False

input: Please share the test call associated with `O=C1/C(=C/c2ccc(O)cc2)COc2ccc(-c3ccccc3)cc21` .
output: False

###

Tested on: TK-10 renal
Test: NCI tumour cell line growth inhibition, 48 h
assay readout: TGI (µM)
Give your result in µM as a bare value.

molecule: C=C1CC[C@@H]2[C@](C)(COC(C)=O)[C@H](OC(C)=O)CC[C@@]2(C)[C@@H]1CC(Nc1ccc(S(=O)(=O)Nc2nccc(C)n2)cc1)C1=CCOC1=O (some centres undefined)
unit tag: µM
result number: 15.8

molecule: CC(=O)Oc1ccc(O)c(O)c1C/C=C(\C)CC/C=C(\C)CC/C=C(\C)CCC=C(C)C
unit tag: µM
result number: 2.6

molecule: CCCCCCCCCCCCCC(=O)CBr
unit tag: µM
result number: 29.7

Here is the next item to consider.
input: Fill in the blank: the reported TGI of `O=C(CSCC(=O)N/N=C\c1ccc(-c2ccccc2)cc1)N/N=C\c1ccc(-c2ccccc2)cc1` is ____.
output: 64.2

###

System: SNB-19 CNS
Assay: NCI tumour cell line growth inhibition, 48 h
assay readout: log10(TGI) (log10 of the value in µM)
On a log10 scale: recorded TGI, unit µM.

Sample answers from the record:
line notation: CCCCN(Cc1ccc(F)cc1)c1ccc(CO)c(Cl)c1
tgt: SNB-19 CNS
result number: 1.44
//
line notation: CNC1=CC(=O)C2=C(C1=O)[C@H]1CC[C@]3(C)C(=O)CC[C@H]3[C@@H]1CC2
tgt: SNB-19 CNS
result number: 1.61
//
line notation: COCCOCCOC1=C(Cl)C(=O)c2c(O)ccc(O)c2C1=O
tgt: SNB-19 CNS
result number: 1.43

input: Query for SNB-19 CNS: what log10(TGI) does the record show for `CCN(Cc1ccccc1OC)c1ccc(CO)c(Cl)c1` ?
output: 1.50

input: Query for SNB-19 CNS: what log10(TGI) does the record show for `Brc1ccc2[nH]cc(-c3nc(-c4c[nH]c5ccccc45)cs3)c2c1` ?
output: 1.09

input: Query for SNB-19 CNS: what log10(TGI) does the record show for `COc1ccc(-c2cn(-c3ccccc3)c(-c3ccccc3)n2)cc1OC` ?
output: 1.32

input: Query for SNB-19 CNS: what log10(TGI) does the record show for `CCCCCCCCCCCCCC(=O)CBr` ?
output: 1.53

input: Query for SNB-19 CNS: what log10(TGI) does the record show for `CC[C@@H](/C=C\CCC1(C[C@H](O)CCC=C(C)C)OCCO1)O[Si](C(C)C)(C(C)C)C(C)C` ?
output: 1.53

input: Query for SNB-19 CNS: what log10(TGI) does the record show for `c1cnc2[nH]cc(-c3csc(-c4cn(CCCCN5CCOCC5)c5ccccc45)n3)c2c1` ?
output: 0.54

input: Query for SNB-19 CNS: what log10(TGI) does the record show for `Cn1ccnc1C(=O)/C=C/c1ccc(CC(=O)Nc2ccccc2)cc1` ?
output: 1.08

Origin of values: PubChem BioAssay (NCI)
